system: Staphylococcus aureus; assay: Antibacterial activity against methicillin-resistant Staphylococcus aureus isolates from skin or soft tissue infection outpatients; format: functional
Activity values by entry
Response body: numeric value in %, unit text excluded.

Per the reported Staphylococcus aureus data, C[C@H]1COc2c(N3CCN(C)CC3)c(F)cc3c(=O)c(C(=O)O)cn1c23.C[C@H]1COc2c(N3CCN(C)CC3)c(F)cc3c(=O)c(C(=O)O)cn1c23.O [LEVOFLOXACIN] has Activity of 33.3

Per the reported Staphylococcus aureus data, CN(C)[C@@H]1C(O)=C(C(N)=O)C(=O)[C@@]2(O)C(O)=C3C(=O)c4c(O)cccc4[C@@](C)(O)[C@H]3C[C@@H]12 [TETRACYCLINE] has Activity of 53.8

Per the reported Staphylococcus aureus data, CC[C@H]1OC(=O)[C@H](C)[C@@H](O[C@H]2C[C@@](C)(OC)[C@@H](O)[C@H](C)O2)[C@H](C)[C@@H](O[C@@H]2O[C@H](C)C[C@H](N(C)C)[C@H]2O)[C@](C)(O)C[C@@H](C)C(=O)[C@H](C)[C@@H](O)[C@]1(C)O [ERYTHROMYCIN] has Activity of 93.8

Per the reported Staphylococcus aureus data, O=C(O)c1cn(C2CC2)c2cc(N3CCNCC3)c(F)cc2c1=O [CIPROFLOXACIN] has Activity of 78.5

Per the reported Staphylococcus aureus data, CCC[C@@H]1C[C@@H](C(=O)NC(C(C)Cl)[C@H]2O[C@H](SC)[C@H](O)[C@@H](O)[C@H]2O)N(C)C1 (single isomer, unassigned) [CLINDAMYCIN] has Activity of 48.2

Per the reported Staphylococcus aureus data, Cc1nnc(SCC2=C(C(=O)O)N3C(=O)[C@@H](NC(=O)Cn4cnnn4)[C@H]3SC2)s1 [CEFAZOLIN] has Activity of 100

Per the reported Staphylococcus aureus data, CN[C@H](CC(C)C)C(=O)N[C@H]1C(=O)N[C@@H](CC(N)=O)C(=O)N[C@H]2C(=O)N[C@H]3C(=O)N[C@H](C(=O)N[C@H](C(=O)O)c4cc(O)cc(O)c4-c4cc3ccc4O)[C@H](O)c3ccc(c(Cl)c3)Oc3cc2cc(c3O[C@@H]2O[C@H](CO)[C@@H](O)[C@H](O)[C@H]2O[C@H]2C[C@](C)(N)[C@H](O)[C@H](C)O2)Oc2ccc(cc2Cl)[C@H]1O [VANCOMYCIN] has Activity of 0
